Assay: Probe fluorescence ratio response to linolenic acid relative to ADIFAB2
Format: binding
Details: response relative to ADIFAB2
Just a reminder that ties go to Not fulfilled: only DR/DR LNA strictly below 1 counts as Fulfilled.

Example results:
• 72G 73F 74E (protein, listed as Rattus norvegicus, PEPTIDE (1)...(131) wild-type rat intestinal fatty acid binding protein) AFDGTWKVDRNENYEKFMEKMGINVVKRKLGAHDNLKLTITQEGNKFTVKESSNFRNIDVVFELGVDFAYSGFEGTELTGTWTMEGNKLVGKFKRVDNGKELIAVREISGNELIQTYTYEGVEAKRIFKKE = Not fulfilled
• 31F2, 72A (protein, listed as Rattus norvegicus, PEPTIDE (1)...(131) wild-type rat intestinal fatty acid binding protein) AFDGTWKVDRNENYEKFMEKMGINVVKRKLFAHDNLKLTITQEGNKFTVKESSNFRNIDVVFELGVDFAYSAADGTELTGTWTMEGNKLVGKFKRVDNGKELIAVREISGNELIQTYTYEGVEAKRIFKKE = Not fulfilled
• 14I 72G 117V (protein, listed as Rattus norvegicus, PEPTIDE (1)...(131) wild-type rat intestinal fatty acid binding protein) AFDGTWKVDRNENIEKFMEKMGINVVKRKLGAHDNLKLTITQEGNKFTVKESSNFRNIDVVFELGVDFAYSGADGTELTGTWTMEGNKLVGKFKRVDNGKELIAVREISGNELIQTVTYEGVEAKRIFKKE = Fulfilled
• 38Q1, 72A (protein, listed as Rattus norvegicus, PEPTIDE (1)...(131) wild-type rat intestinal fatty acid binding protein) AFDGTWKVDRNENYEKFMEKMGINVVKRKLGAHDNLKQTITQEGNKFTVKESSNFRNIDVVFELGVDFAYSAADGTELTGTWTMEGNKLVGKFKRVDNGKELIAVREISGNELIQTYTYEGVEAKRIFKKE = Not fulfilled

Hello, is DR/DR LNA of the following molecule strictly smaller than 1? 82M1, 72A (protein, listed as Rattus norvegicus, PEPTIDE (1)...(131) wild-type rat intestinal fatty acid binding protein) AFDGTWKVDRNENYEKFMEKMGINVVKRKLGAHDNLKLTITQEGNKFTVKESSNFRNIDVVFELGVDFAYSAADGTELTGTMTMEGNKLVGKFKRVDNGKELIAVREISGNELIQTYTYEGVEAKRIFKKE
Fulfilled

Hello, is DR/DR LNA of the following molecule strictly smaller than 1? 78H1, 72A (protein, listed as Rattus norvegicus, PEPTIDE (1)...(131) wild-type rat intestinal fatty acid binding protein) AFDGTWKVDRNENYEKFMEKMGINVVKRKLGAHDNLKLTITQEGNKFTVKESSNFRNIDVVFELGVDFAYSAADGTEHTGTWTMEGNKLVGKFKRVDNGKELIAVREISGNELIQTYTYEGVEAKRIFKKE
Not fulfilled
